Please provide measured log10(microsomal CLint at 1 μM) for the entries that follow.
# Method Notes: in vitro
# Setup Conditions: human, microsomes, pH 7.4
The common logarithm of microsomal CLint at 1 μM in µL/min/mg is what is listed.

For the compound O=C(NCCc1ccccc1)c1ccc2c(c1)N=C(c1cccc(Cl)c1)c1ccccc1S2 [drawing 1763] , what log10(microsomal CLint at 1 μM) is on record?
1.72

Same again, this time with CC(CNC(=O)c1ccc2c(c1)N=C(c1ccc(F)cc1)c1ccccc1S2)c1ccccc1 (centres unmarked) [drawing 1797]
2.03

Same again, this time with O=C(NCc1ccccc1Cl)c1ccc2c(c1)N=C(c1ccc(Cl)cc1)c1ccccc1S2 [drawing 1782]
1.23

Same again, this time with O=C(NCCCc1ccccc1)c1ccc2c(c1)N=C(c1ccc(Cl)cc1)c1ccccc1S2 [drawing 1680]
1.86

Same again, this time with C[C@@H]1CCC[C@H](C)N1NC(=O)c1ccc2c(c1)N=C(c1cccc(Cl)c1)c1ccccc1S2 [drawing 1720]
2.59

Same again, this time with O=C(NCc1cccc(Cl)c1)c1ccc2c(c1)N=C(N1CCCCC1)c1ccccc1S2(=O)=O [drawing 1798]
1.89

Same again, this time with CCN(CCNC(=O)c1ccc2c(c1)N=C(c1cccc(Cl)c1)c1ccccc1S2)c1ccccc1 [drawing 1751]
2.20

Same again, this time with CC(C)CNC(=O)c1ccc2c(c1)N=C(c1ccc(Br)cc1)c1ccccc1S2 [drawing 1791]
1.28

Data credit: patent US20080090805A1
